tested.system: Progesterone receptor (Oryctolagus cuniculus)
method.description: Binding affinity determined by ability to displace [3H]R5020 radioligand using uterine progesterone receptor obtained from estrogen-primed rabbit
pIC50: −log10 of the molar value.
property: pIC50

Example results:
The measured pIC50 associated with Fc1ccc(-n2nc(C3OCCO3)c3c2C(Cc2cccc4ccccc24)CCC3)cc1 (stereo not given) reads 7.01

The measured pIC50 associated with COc1ccc(CC2CCCc3c(C=O)nn(-c4ccc(F)cc4)c32)cc1 (stereo not given) reads 6.79

The measured pIC50 associated with OCc1nn(-c2ccc(F)cc2)c2c1CCCC2Cc1cccc2ccccc12 (stereo not given) reads 7.28

The measured pIC50 associated with O=Cc1nn(-c2ccc(F)cc2)c2c1CCCC2Cc1ccc(F)cc1 (stereo not given) reads 8.19

The measured pIC50 associated with CCN(CC)Cc1nn(-c2ccc(F)cc2)c2c1CCCC2Cc1cccc2ccccc12 (stereo not given) reads 5.86

The measured pIC50 associated with C=Cc1nn(-c2ccc(F)cc2)c2c1CCCC2Cc1cccc2ccccc12 (stereo not given) reads 6.83

[1] CC(C)(C)c1ccc(CC2CCCc3c(C=O)nn(-c4ccc(F)cc4)c32)cc1 (stereo not given)
[2] O=Cc1nn(-c2ccc(F)cc2)c2c1CCCC2Cc1ccc(F)c(F)c1 (stereo not given)
Between the entries labeled 1 and 2 , whose measured pIC50 is lower? Use the label to indicate which entry you chose.
1
(1: 6.00, 2: 8.70)

====

tested.system: Progesterone receptor (Oryctolagus cuniculus, UniProt P06186)
Sequence (P06186 whole entry): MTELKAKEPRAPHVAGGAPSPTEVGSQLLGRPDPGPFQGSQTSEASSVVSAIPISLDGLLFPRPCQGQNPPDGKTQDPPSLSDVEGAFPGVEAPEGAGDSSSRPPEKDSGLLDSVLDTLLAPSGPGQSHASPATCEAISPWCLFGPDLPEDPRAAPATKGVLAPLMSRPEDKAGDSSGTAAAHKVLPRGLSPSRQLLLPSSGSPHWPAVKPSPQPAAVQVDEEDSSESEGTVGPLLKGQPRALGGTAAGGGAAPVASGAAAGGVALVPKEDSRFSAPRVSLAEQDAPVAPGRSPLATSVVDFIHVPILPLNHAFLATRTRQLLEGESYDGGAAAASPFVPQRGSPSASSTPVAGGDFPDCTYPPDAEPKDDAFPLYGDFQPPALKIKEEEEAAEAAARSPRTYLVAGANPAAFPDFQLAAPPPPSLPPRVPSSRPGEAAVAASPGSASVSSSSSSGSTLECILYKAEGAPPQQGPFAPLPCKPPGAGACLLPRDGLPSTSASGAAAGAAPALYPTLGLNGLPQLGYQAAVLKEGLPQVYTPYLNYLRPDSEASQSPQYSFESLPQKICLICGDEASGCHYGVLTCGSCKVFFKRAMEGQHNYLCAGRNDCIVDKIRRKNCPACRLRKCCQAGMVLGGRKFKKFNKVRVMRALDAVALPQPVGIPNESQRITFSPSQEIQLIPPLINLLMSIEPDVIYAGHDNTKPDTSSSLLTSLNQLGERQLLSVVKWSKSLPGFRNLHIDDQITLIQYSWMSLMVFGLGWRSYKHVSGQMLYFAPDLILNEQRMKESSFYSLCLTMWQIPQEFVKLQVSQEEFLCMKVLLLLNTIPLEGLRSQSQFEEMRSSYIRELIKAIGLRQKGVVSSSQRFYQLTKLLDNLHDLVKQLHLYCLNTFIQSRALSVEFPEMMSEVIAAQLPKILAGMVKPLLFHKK
method.description: Binding affinity determined by ability to displace [3H]R5020 radioligand using uterine progesterone receptor obtained from estrogen-primed rabbit
pIC50: −log10 of the molar value.
property: pIC50

The measured pIC50 associated with N#Cc1nn(-c2ccc(F)cc2)c2c1CCCC2Cc1cccc2ccccc12 (centres undefined) reads 7.39

[I] O=Cc1nn(-c2ccc(Cl)cc2)c2c1CCCC2Cc1cccc2ccccc12 (centres undefined)
[II] CN/N=C/c1nn(-c2ccc(F)cc2)c2c1CCCC2Cc1cccc2ccccc12 (centres undefined)
[III] O=Cc1nn(-c2ccc(F)cc2)c2c1CCCC2Cc1ccccc1 (centres undefined)
Thanks in advance: please rank these 3 entries by pIC50, highest to lowest. Output spec: labels arranged per the requested ranking.
III, I, II
(III: 8.52, I: 8.05, II: 7.31)

====

tested.system: Progesterone receptor (Oryctolagus cuniculus)
method.description: Binding affinity determined by ability to displace [3H]R5020 radioligand using uterine progesterone receptor obtained from estrogen-primed rabbit
property: IC50 (nM)

The measured IC50 associated with O=C(OCc1nn(-c2ccc(F)cc2)c2c1CCCC2Cc1cccc2ccccc12)c1ccccc1 (configuration not stated) reads 182

[1] O=Cc1nn(-c2ccc(F)cc2)c2c1CCCC2Cc1ccc(-c2ccccc2)cc1 (configuration not stated)
[2] CCCCCCCC(=O)OCc1nn(-c2ccc(F)cc2)c2c1CCCC2Cc1cccc2ccccc12 (configuration not stated)
Between the entries labeled 1 and 2 , whose measured IC50 is lower? Use the label to indicate which entry you chose.
2
(2: 4010 nM, 1: 10000 nM)

[P] O/N=C/c1nn(-c2ccc(F)cc2)c2c1CCCC2Cc1cccc2ccccc12 (configuration not stated)
[Q] O=Cc1nn(-c2ccc(F)cc2)c2c1CCCC2Cc1cccc2ccccc12 (configuration not stated)
[R] CC(=O)OC(OC(C)=O)c1nn(-c2ccc(F)cc2)c2c1CCCC2Cc1cccc2ccccc12 (configuration not stated)
[S] CC(C)c1ccc(CC2CCCc3c(C=O)nn(-c4ccc(F)cc4)c32)cc1 (configuration not stated)
Thanks in advance: please rank these 4 entries by IC50, highest to lowest. Output spec: labels arranged per the requested ranking.
S, P, R, Q

[A] O=Cc1nn(-c2ccc(F)cc2)c2c1CCCC2Cc1ccccc1Cl (configuration not stated)
[B] CC(=O)OCc1nn(-c2ccc(F)cc2)c2c1CCCC2Cc1cccc2ccccc12 (configuration not stated)
[C] CCC(O)c1nn(-c2ccc(F)cc2)c2c1CCCC2Cc1cccc2ccccc12 (configuration not stated)
[D] CC(=O)c1nn(-c2ccc(F)cc2)c2c1CCCC2Cc1cccc2ccccc12 (configuration not stated)
Ordering: ascending IC50. Output spec: labels arranged per the requested ranking.
A, B, C, D
(A: 10.5 nM, B: 73 nM, C: 690 nM, D: 1760 nM)
